assay name: BSK_KF3CT_SRB: Viability Assessment in the BioMAP Diversity Plus: KF3CT Assay (AID 2283069);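 further: total protein by sulforhodamine B staining as a cytotoxicity measure; read 24 h after compound addition; fitted for both signal gain and loss against DMSO baseline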
study conditions: primary human keratinocytes with fibroblasts
The source made the active and inactive calls. How the source made its calls: active means hit-call score of the fitted dose curve at least 0.9, where 1 is the maximum; inactive means score below 0.9.
Tick one outcome: active, inactive

Sample answers from the record:
compound=CCOP(=S)(OCC)SCCSCC label=inactive
compound=CN(C)NC(=O)CCC(=O)O label=inactive
compound="CCOP(=O)(NC(C)C)Oc1ccc(SC)c(C)c1 (stereo not drawn)" label=inactive
compound=CCCCN(CC)c1c([N+](=O)[O-])cc(C(F)(F)F)cc1[N+](=O)[O-] label=inactive
compound=O=c1ccc(=O)[nH][nH]1 label=inactive

Name the outcome recorded for CC[C@H](C)[C@H]1O[C@]2(C=C[C@@H]1C)C[C@@H]1C[C@@H](C/C=C(\C)[C@@H](O[C@H]3C[C@H](OC)[C@@H](O[C@H]4C[C@H](OC)[C@@H](NC)[C@H](C)O4)[C@H](C)O3)[C@@H](C)/C=C/C=C3\CO[C@@H]4[C@H](O)C(C)=C[C@@H](C(=O)O1)[C@]34O)O2 in the assay.
active

Can you look up the reported call for CSC1=N[C@@](C)(c2ccccc2)C(=O)N1Nc1ccccc1 for me?
inactive
